For each record, write down the corresponding DC50.
biological target: BCL6 (Homo sapiens); construct: Endogenous BCL6 was tagged with the 11-amino acid SmBiT through CRISPR/Cas9 gene editing; endogenous in cells; host or cells: Su-DHL-4 cells, CRISPR/Cas9 knock-in single cell clone; test: HiBiT cellular degradation assay (Promega) in Su-DHL-4 cells; format: cell-based; conditions: concentration to reach 50% degradation; endogenous BCL6 tagged with SmBiT in Su-DHL-4 cells; 24 hr of compound treatment; relative to DMSO control
Answers are plain numbers, in nM.

Hi team, please reply with DC50 for each item in this list.
1. C[C@@H]1CN2C[C@H](NCCOc3cc(cc4c3n(C)c(=O)n4C[C@H](O)C(C)(C)O)Nc3nc2ncc3Cl)C1(F)F
2. C[C@@H]1CN2C[C@H](CCCOc3cc(cc4c3n(C)c(=O)n4CCC(C)(C)O)Nc3nc2ncc3Cl)C1(F)F
3. C[C@@H]1CN2C[C@H](NCCOc3cc(cc4c3n(C)c(=O)n4CCC(C)(C)O)Nc3nc2ncc3Cl)C1(F)F
4. CNC(=O)COc1cc2cc3cc(c2n(C)c1=O)OCCCC1CN(CC(C)C1(F)F)c1ncc(Cl)c(n1)N3 (stereo not shown)
5. C[C@@H]1CN2C[C@H](CCCOc3cc(cc4c3n(C)c(=O)n4C)Nc3nc2ncc3Cl)C1(F)F
6. CNC(=O)COc1cc2cc3cc(c2n(C)c1=O)OCCO[C@H]1C[C@@H](C)CN(C1)c1ncc(Cl)c(n1)N3
7. C[C@@H]1CN2C[C@H](CCCOc3cc(cc4c3n(C)c(=O)c(=O)n4C[C@H]3C[C@H](O)C3)Nc3nc2ncc3Cl)C1(F)F

1. 8.5
2. 11
3. 2.9
4. 1.9
5. 76
6. 121
7. 31
